- System: CP286
- protocol_notes: qHTS profiling for inhibitors of Plasmodium falciparum proliferation (AID 504749); further: nearly all actives have a fitted effect of over 60% in size
- conditions: P. falciparum in erythrocytes, SYBR Green DNA, 72 h; series mostly up to 28.7 µM
Records with an inconclusive call do not appear. Active and inactive are the calls of the source. The call rests on the fitted dose curve; in most records, active means well fitted inhibition curve with a large enough effect; inconclusive means small, poorly fitted or top-dose-only effect; inactive means flat fitted curve, though single readings scatter.
observation_type: outcome

Example entries begin here.
{"columns": ["compound_string", "outcome"],
 "data": [
  ["CN/C(=C\\[N+](=O)[O-])NCCSCc1csc(CN(C)C)n1", "inactive"],
  ["O=C(Cn1ccnc1[N+](=O)[O-])NCc1ccccc1", "inactive"],
  ["CCN(CC)CCOC(=O)C(c1ccccc1)c1ccccc1", "inactive"],
  ["CCOc1ccc(C(=O)OCCN(CC)CC)cc1", "inactive"],
  ["N[C@@H](Cc1ccc(O)cc1)C(=O)O", "inactive"]
]}

Exercise: Query (compound): Cc1cc(OI)c(C(C)C)cc1-c1cc(C(C)C)c(OI)cc1C ; field requested: outcome
Solution: inactive

Ref: PubChem BioAssay (NCATS)
